assay: Solubility study in artificial gastric fluid (saturated solutions, HPLC linear equation; Pharmacopoeia and BCS classification); assay type: physicochemical; settings: artificial gastric fluid, saturated solution, standing 4 hours
Where a name gives a salt, the structure may show the parent alone.
Listed next: entries and their corresponding Solubility in artificial gastric fluid, 4 h.

Illustrative cases are given below, each with its answer.
{"columns": ["molecule", "result"],
 "data": [
  ["C=CC(=O)Nc1cc(Nc2nccc(-c3cn(C)c4cccnc34)n2)c(OC)cc1N(C)CCN(C)C [hydrochloride salt]", "79.18 mg/mL"],
  ["C=CC(=O)Nc1cc(Nc2nccc(-c3cn(C)c4cccnc34)n2)c(OC)cc1N(C)CCN(C)C [p-toluenesulfonate salt]", "46.75 mg/mL"]
]}

Return Solubility in artificial gastric fluid, 4 h for the following molecule: C=CC(=O)Nc1cc(Nc2nccc(-c3cn(C)c4cccnc34)n2)c(OC)cc1N(C)CCN(C)C [phosphate salt (crystal form C)]
159.14 mg/mL

###

assay: Solubility study in artificial gastric fluid (saturated solutions, HPLC linear equation; Pharmacopoeia and BCS classification); format: physicochemical; details: artificial gastric fluid; Do=(Mo/Vo)/Cs, Mo 80 mg, Vo about 250 ml; Do≤1 solubility high, Do>1 low
Counter-ions that a name gives are not always drawn.
readout name: BCS level (Do)

Illustrative cases are given below, each with its answer.
{"columns": ["compound", "BCS level (Do)"],
 "data": [
  ["C=CC(=O)Nc1cc(Nc2nccc(-c3cn(C)c4cccnc34)n2)c(OC)cc1N(C)CCN(C)C [hydrochloride salt]", "0.0046 < 1"],
  ["C=CC(=O)Nc1cc(Nc2nccc(-c3cn(C)c4cccnc34)n2)c(OC)cc1N(C)CCN(C)C [free base]", "0.4515 < 1"],
  ["C=CC(=O)Nc1cc(Nc2nccc(-c3cn(C)c4cccnc34)n2)c(OC)cc1N(C)CCN(C)C [mesylate salt]", "0.0008 < 1"],
  ["C=CC(=O)Nc1cc(Nc2nccc(-c3cn(C)c4cccnc34)n2)c(OC)cc1N(C)CCN(C)C [citrate salt]", "0.0018 < 1"],
  ["C=CC(=O)Nc1cc(Nc2nccc(-c3cn(C)c4cccnc34)n2)c(OC)cc1N(C)CCN(C)C [phosphate salt (amorphous)]", "0.0023 < 1"]
]}

Return BCS level (Do) for the following compound: C=CC(=O)Nc1cc(Nc2nccc(-c3cn(C)c4cccnc34)n2)c(OC)cc1N(C)CCN(C)C [phosphate salt (crystal form C)]
0.0022 < 1

Return BCS level (Do) for the following compound: C=CC(=O)Nc1cc(Nc2nccc(-c3cn(C)c4cccnc34)n2)c(OC)cc1N(C)CCN(C)C [p-toluenesulfonate salt]
0.0068 < 1

###

assay: Solubility study in artificial gastric fluid (saturated solutions, HPLC linear equation; Pharmacopoeia and BCS classification); type: physicochemical; settings: artificial gastric fluid
Structures can show the parent of a compound that is named as a salt.
readout name: Pharmacopoeia of the People's Republic of China Solubility level

{"columns": ["compound", "result"],
 "data": [
  ["C=CC(=O)Nc1cc(Nc2nccc(-c3cn(C)c4cccnc34)n2)c(OC)cc1N(C)CCN(C)C [citrate salt]", "freely soluble"],
  ["C=CC(=O)Nc1cc(Nc2nccc(-c3cn(C)c4cccnc34)n2)c(OC)cc1N(C)CCN(C)C [phosphate salt (crystal form C)]", "freely soluble"],
  ["C=CC(=O)Nc1cc(Nc2nccc(-c3cn(C)c4cccnc34)n2)c(OC)cc1N(C)CCN(C)C [phosphate salt (amorphous)]", "freely soluble"],
  ["C=CC(=O)Nc1cc(Nc2nccc(-c3cn(C)c4cccnc34)n2)c(OC)cc1N(C)CCN(C)C [hydrochloride salt]", "soluble"],
  ["C=CC(=O)Nc1cc(Nc2nccc(-c3cn(C)c4cccnc34)n2)c(OC)cc1N(C)CCN(C)C [mesylate salt]", "freely soluble"]
]}

Return Pharmacopoeia of the People's Republic of China Solubility level for the following compound: C=CC(=O)Nc1cc(Nc2nccc(-c3cn(C)c4cccnc34)n2)c(OC)cc1N(C)CCN(C)C [p-toluenesulfonate salt]
soluble

###

assay: Solubility study in artificial gastric fluid (saturated solutions, HPLC linear equation; Pharmacopoeia and BCS classification); format: physicochemical; details: artificial gastric fluid, saturated solution, standing 1 hour
Structures can show the parent of a compound that is named as a salt.
Listed next: entries and their corresponding Solubility in artificial gastric fluid, 1 h.
Only the number, expressed in mg/mL, is required.

{"columns": ["molecule", "quantitative result"],
 "data": [
  ["C=CC(=O)Nc1cc(Nc2nccc(-c3cn(C)c4cccnc34)n2)c(OC)cc1N(C)CCN(C)C [hydrochloride salt]", 83.79],
  ["C=CC(=O)Nc1cc(Nc2nccc(-c3cn(C)c4cccnc34)n2)c(OC)cc1N(C)CCN(C)C [citrate salt]", 168.51],
  ["C=CC(=O)Nc1cc(Nc2nccc(-c3cn(C)c4cccnc34)n2)c(OC)cc1N(C)CCN(C)C [mesylate salt]", 248.77]
]}

Return Solubility in artificial gastric fluid, 1 h for the following molecule: C=CC(=O)Nc1cc(Nc2nccc(-c3cn(C)c4cccnc34)n2)c(OC)cc1N(C)CCN(C)C [p-toluenesulfonate salt]
46.21

###

Listed next: entries and their corresponding Solubility in artificial gastric fluid, 4 h.
test: Solubility study in artificial gastric fluid (saturated solutions, HPLC linear equation; Pharmacopoeia and BCS classification); format: physicochemical; conditions: artificial gastric fluid, saturated solution, standing 4 hours
Structures can show the parent of a compound that is named as a salt.
Include the unit right after the number.

{"columns": ["compound", "result"],
 "data": [
  ["C=CC(=O)Nc1cc(Nc2nccc(-c3cn(C)c4cccnc34)n2)c(OC)cc1N(C)CCN(C)C [free base]", "0.86 mg/mL"],
  ["C=CC(=O)Nc1cc(Nc2nccc(-c3cn(C)c4cccnc34)n2)c(OC)cc1N(C)CCN(C)C [mesylate salt]", "370.37 mg/mL"],
  ["C=CC(=O)Nc1cc(Nc2nccc(-c3cn(C)c4cccnc34)n2)c(OC)cc1N(C)CCN(C)C [phosphate salt (amorphous)]", "136.76 mg/mL"]
]}

Return Solubility in artificial gastric fluid, 4 h for the following compound: C=CC(=O)Nc1cc(Nc2nccc(-c3cn(C)c4cccnc34)n2)c(OC)cc1N(C)CCN(C)C [citrate salt]
196.47 mg/mL

###

experiment: Hygroscopicity study of crystal forms (Chinese Pharmacopoeia 2015, part 4, appendix 9103); assay type: physicochemical; settings: 25° C.±1° C., relative humidity 80%±2%, 6 hours
Structures can show the parent of a compound that is named as a salt.
Answer rule not met if Weight gain over 6 hours (%) is under 2%, and rule met if it is 2% or more.

# example entries with known answers
{"columns": ["compound", "assigned class"],
 "data": [
  ["C=CC(=O)Nc1cc(Nc2nccc(-c3cn(C)c4cccnc34)n2)c(OC)cc1N(C)CCN(C)C [free base]", "rule not met"],
  ["C=CC(=O)Nc1cc(Nc2nccc(-c3cn(C)c4cccnc34)n2)c(OC)cc1N(C)CCN(C)C [phosphate salt (crystal form C)]", "rule met"]
]}

hey, is Weight gain over 6 hours (%) for this one >= 2%? C=CC(=O)Nc1cc(Nc2nccc(-c3cn(C)c4cccnc34)n2)c(OC)cc1N(C)CCN(C)C [mesylate salt]
rule met

hey, is Weight gain over 6 hours (%) for this one >= 2%? C=CC(=O)Nc1cc(Nc2nccc(-c3cn(C)c4cccnc34)n2)c(OC)cc1N(C)CCN(C)C [hydrochloride salt]
rule not met

hey, is Weight gain over 6 hours (%) for this one >= 2%? C=CC(=O)Nc1cc(Nc2nccc(-c3cn(C)c4cccnc34)n2)c(OC)cc1N(C)CCN(C)C [citrate salt]
rule met

hey, is Weight gain over 6 hours (%) for this one >= 2%? C=CC(=O)Nc1cc(Nc2nccc(-c3cn(C)c4cccnc34)n2)c(OC)cc1N(C)CCN(C)C [p-toluenesulfonate salt]
rule not met

hey, is Weight gain over 6 hours (%) for this one >= 2%? C=CC(=O)Nc1cc(Nc2nccc(-c3cn(C)c4cccnc34)n2)c(OC)cc1N(C)CCN(C)C [phosphate salt (amorphous)]
rule not met

###

experiment: Hygroscopicity study of crystal forms (Chinese Pharmacopoeia 2015, part 4, appendix 9103); assay type: physicochemical; settings: 25° C.±1° C., relative humidity 80%±2%, 24 hours
Counter-ions that a name gives are not always drawn.
Answer 0.0 if Weight gain over 24 hours (%) is under 2%, and 1.0 if it is 2% or more.

{"columns": ["compound", "assigned class"],
 "data": [
  ["C=CC(=O)Nc1cc(Nc2nccc(-c3cn(C)c4cccnc34)n2)c(OC)cc1N(C)CCN(C)C [phosphate salt (crystal form C)]", 1.0],
  ["C=CC(=O)Nc1cc(Nc2nccc(-c3cn(C)c4cccnc34)n2)c(OC)cc1N(C)CCN(C)C [hydrochloride salt]", 0.0],
  ["C=CC(=O)Nc1cc(Nc2nccc(-c3cn(C)c4cccnc34)n2)c(OC)cc1N(C)CCN(C)C [mesylate salt]", 1.0],
  ["C=CC(=O)Nc1cc(Nc2nccc(-c3cn(C)c4cccnc34)n2)c(OC)cc1N(C)CCN(C)C [phosphate salt (amorphous)]", 0.0]
]}

hey, is Weight gain over 24 hours (%) for this one >= 2%? C=CC(=O)Nc1cc(Nc2nccc(-c3cn(C)c4cccnc34)n2)c(OC)cc1N(C)CCN(C)C [citrate salt]
1.0

hey, is Weight gain over 24 hours (%) for this one >= 2%? C=CC(=O)Nc1cc(Nc2nccc(-c3cn(C)c4cccnc34)n2)c(OC)cc1N(C)CCN(C)C [free base]
1.0

hey, is Weight gain over 24 hours (%) for this one >= 2%? C=CC(=O)Nc1cc(Nc2nccc(-c3cn(C)c4cccnc34)n2)c(OC)cc1N(C)CCN(C)C [p-toluenesulfonate salt]
0.0
